Values compiled from PubChem BioAssay (NCI).

# method: NCI Yeast Anticancer Drug Screen. Data for the cln2 rad14 strain (AID 165);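 note: 0% = growth equal to vehicle treated cultures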
# condition set: S. cerevisiae cln2 rad14 strain, at 50.0 µM, hits give high values
About 79,000 compounds went through this panel and 15% of them were active in at least one assay; those are over-represented in the sample as a whole.
quantity measured: growth inhibition (%)
Return type: number; implicit unit %.

Prompt: Determine from records and report growth inhibition for O=C1CCN(C2(c3ccccc3)CCCCC2)CC1
Completion: -5.1

Prompt: Determine from records and report growth inhibition for O=[C-]/C=C/c1ccccc1.[C-]#[O+].[C-]#[O+].[Fe+2].[c-]1ccccc1
Completion: -3

Prompt: Determine from records and report growth inhibition for COc1cc(C2c3cc4c(cc3[C@@H](OC)[C@H]3COC(=O)C23)OCO4)cc(OC)c1O (stereo not given in full)
Completion: 85.1

Prompt: Determine from records and report growth inhibition for COc1cc2c(cc1OC)C13CCN4C=C5CCOC6CC(=O)N2C1C6C5CC43 (stereo not given)
Completion: 1.75

Prompt: Determine from records and report growth inhibition for O=c1ccn(C2OC(CO)C(O)C2[Se]c2ccccc2)c(=O)[nH]1 (stereo not given)
Completion: 6.05

====

# method: NCI Yeast Anticancer Drug Screen. Data for the bub3 strain (AID 167)
# condition set: S. cerevisiae bub3 mutant strain, at 50.0 µM, hits give high values
The panel holds about 79,000 compounds, 15% with a hit somewhere; the sample as a whole holds those more often.
quantity measured: growth inhibition (%)
Return type: number; implicit unit %.

For orientation, consider the following solved cases.
CC(C)(C)Nc1ccccc1.[C-]#[O+].[C-]#[O+].[C-]#[O+].[Cr]: 28.4
CC(=O)C(C(C)=O)C(C)=O.[Cr]: -16.1
[C-]#[O+].[Cl][Ru]([Cl])([Cl])([Cl])[Cl]: 11.3
CC(C)=CCC1=C(OOC2=C(CC=C(C)C)C(=O)c3ccccc3C2=O)C(=O)c2ccccc2C1=O: 5.05
CCCOP1(=O)C=C(O)C(Cl)=C(C)C1 (stereo unspecified): -19.4
C/C=C/C(C)C1(CCC)C(=O)NC(=O)NC1=O (stereo unspecified): 8.5

Prompt: Determine from records and report growth inhibition for Clc1ccc(-c2csc3cccc[n+]23)cc1
Completion: 22.8

Prompt: Determine from records and report growth inhibition for COc1cc(CC(N)c2ccccc2)ccc1O (stereo unspecified)
Completion: 2.1

Prompt: Determine from records and report growth inhibition for CCCCCCCCCCCCCCCC[As](CCCCCCCCCCCCCCCC)SCC1OC(OC(C)=O)C(OC(C)=O)C(OC(C)=O)C1OC(C)=O (stereo unspecified)
Completion: -20.1

Prompt: Determine from records and report growth inhibition for O=[N+]([O-])c1ccc(O)c(C=NCCN=Cc2cc([N+](=O)[O-])ccc2O)c1.[Ni+2]
Completion: -3.8

Prompt: Determine from records and report growth inhibition for O=[N+]([O-])c1cccc(N=Nc2ccc(N(CCCl)CCCl)cc2)c1
Completion: 4.65

====

# method: NCI Yeast Anticancer Drug Screen. Data for the bub3 strain (AID 167)
# condition set: S. cerevisiae bub3 mutant strain, at 50.0 µM, hits give high values
The panel holds about 79,000 compounds, 15% with a hit somewhere; the sample as a whole holds those more often.
quantity measured: growth inhibition (%)
Return type: number; implicit unit %.

CC(C)c1cc2c(c(O)c1O)[C@@]1(C(=O)O)CCCC(C)(C)[C@@H]1CC2: 92.3
CN1CCCC(O)(C(=O)c2ccccc2)C1 (configuration not stated): -9.35
O=[N+]([O-])c1ccc(OCCOCCOc2ccc(S(=O)(=O)F)cc2)c(Cl)c1: 45.4

Prompt: Determine from records and report growth inhibition for CN1C2CCC1CC(OC(=O)c1cccc(O)c1)C2 (configuration not stated)
Completion: 15.9

Prompt: Determine from records and report growth inhibition for c1cc(C[N+]23CN4CN(CN(C4)C2)C3)cs1
Completion: 1.55

Prompt: Determine from records and report growth inhibition for CN(C)C1=C(N2CC2)C(=O)C(N(C)C)=C(N2CC2)C1=O
Completion: 1

Prompt: Determine from records and report growth inhibition for CC(C)c1ccc(CCN)cc1
Completion: 5.65

Prompt: Determine from records and report growth inhibition for CC1CN=C(NCc2ccccc2)S1 (configuration not stated)
Completion: -1.05

Prompt: Determine from records and report growth inhibition for CC(=O)OC(C[N+](=O)[O-])C(Cl)(Cl)Cl (configuration not stated)
Completion: 8.4

Prompt: Determine from records and report growth inhibition for CC1(C)N=C(N)N=C(N)N1c1ccc(OCCCOc2ccc(S(=O)(=O)F)cc2)cc1
Completion: 31.5

Prompt: Determine from records and report growth inhibition for CC1CCCCN1CCCN=C(N)N[N+](=O)[O-] (configuration not stated)
Completion: 18.1

Prompt: Determine from records and report growth inhibition for Cc1c2ccccc2c(C)c2c1cc[n+]1ccccc21
Completion: 1.05
